Target: Bcl-wΔ29 (Homo sapiens, UniProt Q92843)
Sequence (Q92843 1-164 limits assumed): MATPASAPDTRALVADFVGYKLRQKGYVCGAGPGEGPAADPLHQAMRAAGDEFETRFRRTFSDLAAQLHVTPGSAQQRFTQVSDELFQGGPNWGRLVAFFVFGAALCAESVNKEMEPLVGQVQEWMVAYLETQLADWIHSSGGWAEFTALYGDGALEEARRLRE
The threshold is 60 µM. Values of IC50 beneath it are tagged 1.0; values meeting or exceeding it are tagged 0.0.

{"columns": ["Mol Smiles", "Answer Label"],
 "data": [
  ["CCCN(C(=O)N[C@@H](CSCc1ccccc1)C(=O)O)C(=O)c1ccc(/C=C/c2ccccc2)cc1", 0.0],
  ["CCCN(C(=O)N[C@@H](CSCc1ccccc1)C(=O)O)C(=O)c1ccc(C#Cc2ccccc2)cc1", 0.0],
  ["CSCCN(C(=O)N[C@@H](CSCc1ccccc1)C(=O)O)C(=O)c1cccc(-c2ccccc2)c1", 0.0],
  ["CC(C)Cc1cccc(C(=O)N(Cc2ccccc2)C(=O)N[C@@H](CSCc2ccccc2)C(=O)O)c1", 1.0],
  ["O=C(O)[C@H](CSCc1ccccc1)NC(=O)N(Cc1cccnc1)C(=O)c1cccc(-c2ccccc2)c1", 1.0],
  ["CCCN(C(=O)N[C@@H](CSc1ccccc1)C(=O)O)C(=O)c1cccc(C#Cc2ccccc2)c1", 1.0],
  ["CCCN(C(=O)N[C@@H](CSCc1ccccc1)C(=O)O)C(=O)c1cccc(-c2ccc(Cl)c(Cl)c2)c1", 1.0],
  ["CCCN(C(=O)N[C@@H](CSCc1ccccc1)C(=O)O)C(=O)c1cccc(-c2ccccc2Cl)c1", 1.0],
  ["CCCCSC[C@H](NC(=O)N(Cc1ccccc1)C(=O)c1cccc(CC(C)C)c1)C(=O)O", 1.0],
  ["O=C(O)[C@H](CSCc1ccccc1)NC(=O)N(Cc1cccc2ccccc12)C(=O)c1cccc(-c2ccccc2)c1", 1.0],
  ["CCCN(C(=O)N[C@@H](CSCc1ccccc1)C(=O)O)C(=O)c1cccc(-c2ccc(C)cc2)c1", 0.0],
  ["CCCN(C(=O)N[C@@H](Cc1c[nH]c2ccccc12)C(=O)O)C(=O)c1cccc(-c2ccccc2)c1", 0.0],
  ["CCCN(C(=O)N[C@@H](CSCc1ccccc1)C(=O)O)C(=O)c1cccc(-c2ccc(Cl)cc2)c1", 0.0],
  ["CC(C)CCc1cccc(C(=O)N(Cc2ccccc2)C(=O)N[C@@H](CSCc2ccccc2)C(=O)O)c1", 1.0],
  ["CCCSC[C@H](NC(=O)N(CCC)C(=O)c1cccc(C#Cc2ccccc2)c1)C(=O)O", 1.0],
  ["CCCN(C(=O)N[C@@H](CSCc1ccccc1)C(=O)O)C(=O)c1ccc(-c2ccccc2)cc1", 0.0]
]}

* * *

pIC50: −log10 of the molar value.
Each entry below carries its measured pIC50, system: Bcl-wΔ29 (Homo sapiens).

{"columns": ["Mol Smiles", "Study Target", "pIC50"],
 "data": [
  ["O=C(O)[C@H](CSCc1ccccc1)NC(=O)N(Cc1ccccc1)C(=O)c1cccc(-c2ccccc2)c1", "Bcl-wΔ29 (Homo sapiens)", 4.34],
  ["CCCN(C(=O)N[C@@H](CSCc1ccccc1)C(=O)O)C(=O)c1cccc(-c2cccc3ccccc23)c1", "Bcl-wΔ29 (Homo sapiens)", 4.51],
  ["CCCN(C(=O)Cc1ccccc1)C(=O)N[C@@H](CSCc1ccccc1)C(=O)O", "Bcl-wΔ29 (Homo sapiens)", 4.15],
  ["CCCN(C(=O)N[C@@H](CSCc1ccccc1)C(=O)O)C(=O)c1ccc(CCc2ccccc2)cc1", "Bcl-wΔ29 (Homo sapiens)", 4.30]
]}

* * *

Each entry below carries its measured IC50, system: Bcl-xLΔ25 (Homo sapiens).
Test Readout: IC50 (µM)

{"columns": ["Mol Smiles", "Test Readout", "Unit String", "Observed Value"],
 "data": [
  ["CCCN(C(=O)N[C@@H](CSCCc1ccccc1)C(=O)O)C(=O)c1cccc(C#Cc2ccccc2)c1", "IC50", "µM", 23],
  ["CCCCCSC[C@H](NC(=O)N(CCC)C(=O)c1cccc(C#Cc2ccccc2)c1)C(=O)O", "IC50", "µM", 30],
  ["CCCCN(C(=O)N[C@@H](CSCC(C)C)C(=O)O)C(=O)c1cccc(C#Cc2ccccc2)c1", "IC50", "µM", 39],
  ["O=C(O)[C@H](CSCc1ccccc1)NC(=O)N(CC1CCCCC1)C(=O)c1cccc(-c2ccccc2)c1", "IC50", "µM", 45.2]
]}

* * *

molecules and their reported IC50
Molecular target: Mcl-1 (Homo sapiens, UniProt Q07820)
Sequence (Q07820 whole entry, species assumed): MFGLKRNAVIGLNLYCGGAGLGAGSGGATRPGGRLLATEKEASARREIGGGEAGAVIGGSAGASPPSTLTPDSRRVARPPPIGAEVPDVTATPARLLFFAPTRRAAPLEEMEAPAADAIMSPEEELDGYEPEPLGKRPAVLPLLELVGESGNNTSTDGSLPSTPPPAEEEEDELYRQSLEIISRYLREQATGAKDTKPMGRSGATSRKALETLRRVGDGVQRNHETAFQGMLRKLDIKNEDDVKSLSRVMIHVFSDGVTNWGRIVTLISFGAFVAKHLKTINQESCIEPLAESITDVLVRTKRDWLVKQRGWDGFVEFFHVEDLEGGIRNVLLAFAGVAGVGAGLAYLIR

{"columns": ["Mol Smiles", "IC50, µM"],
 "data": [
  ["CCCN(C(=O)N[C@@H](CSCc1ccccc1)C(=O)O)C(=O)c1cccc(C#CCC(C)C)c1", 204],
  ["COc1ccc(CN(C(=O)N[C@@H](CSCc2ccccc2)C(=O)O)C(=O)c2ccc(-c3ccccc3)cc2)cc1", 77],
  ["CCCN(C(=O)N[C@@H](CSCC(C)C)C(=O)O)C(=O)c1cccc(C#Cc2ccc(Oc3ccccc3)cc2)c1", 71],
  ["CCCN(C(=O)N[C@@H](CSCC(C)C)C(=O)O)C(=O)c1cccc(C#Cc2cccc(C)c2)c1", 66],
  ["CCCN(C(=O)N[C@@H](CSCC(C)C)C(=O)O)C(=O)c1cccc(C#Cc2ccc(C)cc2)c1", 92],
  ["O=C(O)[C@H](CSCc1ccccc1)NC(=O)N(Cc1ccc(Cl)cc1)C(=O)c1ccc(-c2ccccc2)cc1", 61],
  ["CCCN(C(=O)N[C@@H](CSCC(C)C)C(=O)O)C(=O)c1cccc(C#Cc2ccccc2)c1", 92],
  ["CCCN(C(=O)N[C@@H](CSCC(C)C)C(=O)O)C(=O)c1cccc(C#Cc2ccc(Cl)cc2)c1", 146],
  ["CCCN(C(=O)N[C@@H](CSCC(C)C)C(=O)O)C(=O)c1cccc(C#Cc2ccc(Br)cc2)c1", 80],
  ["CCCN(C(=O)Cc1ccccc1)C(=O)N[C@@H](CSCc1ccccc1)C(=O)O", 164],
  ["CCCN(C(=O)N[C@@H](CSCC(C)C)C(=O)O)C(=O)c1cccc(C#Cc2cccc(Br)c2)c1", 70],
  ["CCCN(C(=O)N[C@@H](CSc1ccccc1)C(=O)O)C(=O)c1cccc(C#Cc2ccccc2)c1", 53],
  ["CCCN(C(=O)N[C@@H](CSCC(C)C)C(=O)O)C(=O)c1cccc(C#Cc2cccc(Cl)c2)c1", 84],
  ["CC(C)CCc1cccc(C(=O)N(CCc2ccccc2)C(=O)N[C@@H](CSCc2ccccc2)C(=O)O)c1", 64],
  ["CCCSC[C@H](NC(=O)N(CCC)C(=O)c1cccc(C#Cc2ccccc2)c1)C(=O)O", 70]
]}

* * *

Molecular target: Bcl-wΔ29 (Homo sapiens)
Sequence (Q92843 1-164 limits assumed): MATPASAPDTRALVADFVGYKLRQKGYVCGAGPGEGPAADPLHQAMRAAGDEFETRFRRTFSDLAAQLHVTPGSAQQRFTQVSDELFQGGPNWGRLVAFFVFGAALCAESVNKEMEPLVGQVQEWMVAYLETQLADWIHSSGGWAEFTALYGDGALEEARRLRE
pIC50: −log10 of the molar value.
molecules and their reported pIC50
Test Readout: pIC50

{"columns": ["Molecule", "Observed Value"],
 "data": [
  ["CCCCN(C(=O)N[C@@H](CSCc1ccccc1)C(=O)O)C(=O)c1cccc(-c2ccccc2)c1 [(2)]", 4.24],
  ["CCCN(C(=O)Cc1cccc(-c2ccccc2)c1)C(=O)N[C@@H](CSCc1ccccc1)C(=O)O [(104)]", 3.69],
  ["CCCN(C(=O)N[C@@H](CSCC(C)C)C(=O)O)C(=O)c1cccc(C#Cc2ccccc2)c1 [(91)]", 4.49],
  ["CCCN(C(=O)N[C@@H](CSc1ccccc1)C(=O)O)C(=O)c1cccc(-c2ccccc2)c1 [(22)]", 4.10],
  ["CCCN(C(=O)N[C@@H](CCCc1ccccc1)C(=O)O)C(=O)c1cccc(-c2ccccc2)c1 [(19)]", 3.88],
  ["CCCN(C(=O)N[C@@H](CSCc1ccccc1)C(=O)O)C(=O)c1cccc(C#Cc2ccccc2)c1 [(66)]", 4.24],
  ["CCCN(C(=O)N[C@@H](CCc1ccccc1)C(=O)O)C(=O)c1cccc(-c2ccccc2)c1 [(16)]", 3.89],
  ["CCCCSC[C@H](NC(=O)N(Cc1ccccc1)C(=O)c1cccc(CCC(C)C)c1)C(=O)O [(113)]", 4.55]
]}

* * *

Target: Bcl-xLΔ25 (Homo sapiens, UniProt Q07817)
Construct: GST tagged Bcl-xL ΔC25 protein
Sequence (Q07817 1-208 limits assumed, stated change not applied): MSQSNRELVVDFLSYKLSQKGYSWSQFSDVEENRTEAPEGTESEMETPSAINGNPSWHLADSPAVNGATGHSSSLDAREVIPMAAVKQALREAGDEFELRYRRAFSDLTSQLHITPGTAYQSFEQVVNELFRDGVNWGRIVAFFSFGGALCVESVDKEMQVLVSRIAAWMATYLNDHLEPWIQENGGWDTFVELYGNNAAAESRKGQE
Test: Alphascreen GST competition binding assay, benzoylurea compounds vs Biotinylated Bim BH3-26 peptide on GST tagged Bcl-xL ΔC25 protein
Conditions: GST tagged Bcl-xL ΔC25 protein 0.6 nM, Biotinylated Bim BH3-26 peptide 5.0 nM, 4 hours at room temperature; n.b. = not binding in the assay conditions
pIC50: −log10 of the molar value.
compounds and their reported pIC50

{"columns": ["Mol Smiles", "pIC50"],
 "data": [
  ["CCCN(C(=O)N[C@@H](CSCC(C)C)C(=O)O)C(=O)c1cccc(C#Cc2ccc(Oc3ccccc3)cc2)c1", 3.76],
  ["CC(C)CSC[C@H](NC(=O)N(CC(C)C)C(=O)c1cccc(C#Cc2ccccc2)c1)C(=O)O", 4.70],
  ["CCCN(C(=O)N[C@H](CC(=O)O)Cc1ccc2ccccc2c1)C(=O)c1cccc(C#Cc2ccccc2)c1", 4.47],
  ["O=C(O)[C@H](CSCc1ccccc1)NC(=O)N(Cc1ccccc1)C(=O)c1cccc(-c2ccccc2)c1", 4.44],
  ["CCCN(C(=O)N[C@@H](CSC(C)C)C(=O)O)C(=O)c1cccc(-c2ccccc2Cl)c1", 3.79],
  ["CCCCSC[C@H](NC(=O)N(CCc1ccccc1)C(=O)c1cccc(CCC(C)C)c1)C(=O)O", 4.07],
  ["CCCN(C(=O)N[C@@H](CSC(C)C)C(=O)O)C(=O)c1cccc(C#Cc2ccccc2)c1", 4.44],
  ["CCCN(C(=O)N[C@@H](CCSC)CC(=O)O)C(=O)c1cccc(C#Cc2ccccc2)c1", 3.85],
  ["CCCCSC[C@H](NC(=O)N(Cc1ccccc1)C(=O)c1cccc(CC(C)C)c1)C(=O)O", 3.94],
  ["CCCN(C(=O)N[C@@H](CSCC(C)C)C(=O)O)C(=O)c1cccc(-c2ccccc2Cl)c1", 4.03],
  ["COc1ccc(CN(C(=O)N[C@@H](CSCc2ccccc2)C(=O)O)C(=O)c2ccc(-c3ccccc3)cc2)cc1", 4.85],
  ["CCCN(C(=O)N[C@@H](CSCC(C)C)C(=O)NS(=O)(=O)c1ccc(-c2ccccc2)cc1)C(=O)c1cccc(C#Cc2ccccc2)c1", 4.38],
  ["CCCN(C(=O)N[C@@H](CSc1ccccc1)C(=O)O)C(=O)c1cccc(C#Cc2ccccc2)c1", 4.57],
  ["CCCN(C(=O)N[C@@H](CSc1ccccc1)C(=O)O)C(=O)c1cccc(-c2ccccc2Cl)c1", 4.32],
  ["CCCN(C(=O)N[C@@H](CSCC(C)C)C(=O)O)C(=O)c1cccc(C#Cc2cccc(Cl)c2)c1", 4.55],
  ["CCCN(C(=O)N[C@H](CC(=O)O)Cc1c[nH]c2ccccc12)C(=O)c1cccc(C#Cc2ccccc2)c1", 4.72]
]}

Ref: patent EP1763509B1
